test system: Human PBMCs; assay: CD3/CD28 mediated PBMC proliferation assay; format: cell-based; details: proliferation of human PBMCs stimulated with anti-CD3 and anti-CD28, 72 hours, Cell Titer-Glo
MEASURE: EC50

Give recorded EC50 with Human PBMCs for the following compound: C=CC(=O)Nc1cccc(-n2c(NC(=O)c3ccc(Cl)cc3)nc3cc(CN[C@@H](C)C(C)(C)C)ccc32)c1
0.01 to 0.1 µM

Could you share what EC50 was measured for C=CC(=O)Nc1cccc(-n2c(NC(=O)c3ccc(C(F)F)s3)nc3cc(CN[C@H]4CC[C@H](OCCOC)CC4)ccc32)c1 , tested on Human PBMCs?
< 0.01 µM

Reported EC50 for Human PBMCs, given C=CC(=O)Nc1cccc(-n2c(NC(=O)c3ccc(C(F)F)s3)nc3cc(CN[C@@H](C)C(C)(C)C)ccc32)c1 ?
0.01 to 0.1 µM

Request body: readout EC50, system Human PBMCs, query C=CC(=O)Nc1cccc(-n2c(NC(=O)c3cncs3)nc3cc(CN[C@@H](C)C(C)(C)C)ccc32)c1 . Return the value.
0.01 to 0.1 µM

Give Human PBMCs EC50 for C=CC(=O)Nc1cccc(-n2c(NC(=O)c3ccc(C(F)F)s3)nc3cc(CNCC)ccc32)c1
< 0.01 µM

Observed EC50 on Human PBMCs for C=CC(=O)Nc1cccc(-n2c(NC(=O)c3ccc(C(F)F)s3)nc3cc(CN(C(C)=O)[C@@H](C)C(C)(C)C)ccc32)c1 , please.
0.01 to 0.1 µM

Param readout= EC50; system= Human PBMCs; entry= C=CC(=O)Nc1ccc(F)c(-n2c(NC(=O)c3ccc(C(F)F)s3)nc3cc(CN[C@@H](C)C(C)(C)C)ccc32)c1 ; returns value.
< 0.01 µM
